# experimental.system: hT40 (Homo sapiens, UniProt P10636)
# Sequence (P10636 1-441 isoform P10636-8): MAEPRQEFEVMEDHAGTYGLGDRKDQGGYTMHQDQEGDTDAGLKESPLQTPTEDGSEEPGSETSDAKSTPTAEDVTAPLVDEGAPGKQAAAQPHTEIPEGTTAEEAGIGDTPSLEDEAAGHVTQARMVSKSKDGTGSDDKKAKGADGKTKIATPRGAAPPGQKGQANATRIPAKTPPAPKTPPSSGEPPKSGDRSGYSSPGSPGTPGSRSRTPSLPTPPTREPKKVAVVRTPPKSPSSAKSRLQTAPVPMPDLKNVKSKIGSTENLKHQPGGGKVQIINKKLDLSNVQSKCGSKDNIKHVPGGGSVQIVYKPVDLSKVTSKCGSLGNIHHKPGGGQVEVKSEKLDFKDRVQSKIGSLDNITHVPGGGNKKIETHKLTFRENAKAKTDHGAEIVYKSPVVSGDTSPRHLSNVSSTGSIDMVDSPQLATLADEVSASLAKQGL
# test.method.notes: Biacore X100 SPR, scAb captured via anti-HuCk, hT40 as analyte
# Assay type: binding
# condition.details: scAb, Table 23, T441 (hT40)
property.label: kd

{"molecule": "S1E12: anti-tau clone, SEQ ID NO: 218 (protein, S1E12 amino acid sequence) scFv: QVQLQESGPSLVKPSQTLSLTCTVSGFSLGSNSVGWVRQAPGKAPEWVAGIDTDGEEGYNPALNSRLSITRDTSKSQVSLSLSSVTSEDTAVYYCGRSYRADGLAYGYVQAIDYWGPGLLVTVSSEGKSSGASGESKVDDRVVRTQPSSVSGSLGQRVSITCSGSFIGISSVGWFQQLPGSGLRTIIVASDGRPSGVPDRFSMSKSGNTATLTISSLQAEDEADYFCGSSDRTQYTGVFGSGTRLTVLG", "meas.value": "0.000319 s⁻¹"}
